Assay: growth inhibitors of tim10-1 mutant yeast, primary screen, luminescence, uHTS (AID 463190);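 further: mutant grown at 25 °C; 0% = DMSO wells with yeast and 100% = wells holding no yeast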
Conditions: S. cerevisiae tim10-1 ts strain growth, BacTiter-Glo, 24 h; at 20 µM; hits give high values
Out of some 330,000 compounds screened, about 7,300 (2.2%) were called active. The sample holds actives, similar compounds and a random draw of the others, so the mix is not that of the screen.
Exercise: for every item that follows, state its recorded inhibition.
Give bare numbers, in %.

A selection of reference data follows.
Molecule	Observed Property	Reported Measurement
CN(C)C(=O)c1ccc(NC(=O)c2ccccc2-c2ccccc2)cc1	inhibition	3.15
CCCCCCCCn1c2c(c(=N)c3c1CCC3)CCCC2	inhibition	49.1
CCCc1cc(=O)[nH]c(SCC(=O)Nc2sc3c(c2C#N)CCCC3)n1	inhibition	6.17
O=C(CCNS(=O)(=O)c1ccccc1C(F)(F)F)Nc1ccncc1	inhibition	-1.52
COc1ccc(CNC(=O)C(C)NCc2ccccc2Cl)cc1 (stereo unspecified)	inhibition	21.6
CC(NC(=S)Nc1ccccc1)C1COc2ccccc2O1 (stereo unspecified)	inhibition	44.1
CC(=O)c1cccc(NC(=O)C2COc3ccccc3O2)c1 (stereo unspecified)	inhibition	6.4
O=CN1CCN(C(=O)c2ccc3c(c2)OCO3)CC1	inhibition	-19.2
CCC(C)NCCOCCOc1ccc(Br)cc1C (stereo unspecified)	inhibition	-4.38
CN(C)C(=O)c1ccc2c(c1)C1C3CCC(C3)C1C(c1ccccc1)N2 (stereo unspecified)	inhibition	46

Shifting focus to the molecule that follows.
Record `CCOC(=O)c1c(-c2ccccc2)oc2cc(Br)c(O)cc12` . Reported inhibition: 48.2
